Recorded values, source the DeepSol protein solubility set.

MEASUREMENT NOTES: soluble on expression in E. coli; label from the status in PepcDB or PDB records

{"SEQUENCE CHAIN": "MGEAAKDQTEEVIQAWYLDNKEEDQKLPHHKDPKEFVSLDKLAELGVLCWRLDADNYETDEELKRIRESRGYSYMDLCEVCPEKLPNYEEKVKMFFEEHLHIDEEIRYCLAGSGYFDVRDLNDIWIRVWVKKGGLIVFPAGIYHRFTVDSDNYMKAMRLFVGGPVWTAYNRPHDHLPARKAYMKKFLKVIGDRNIDASA", "soluble on expression in E. coli": "soluble"}
{"SEQUENCE CHAIN": "RNDTECDLCGGDPEKKCHSCSCRVCGGKHEPNMQLLCDECNVAYHIYCLNPPLDKVPEEEYWYCPSCKTD", "soluble on expression in E. coli": "soluble"}
{"SEQUENCE CHAIN": "MAHHHHHHMAVLVKNYEASLVDMAVQDFIKLGIDGVYTTMKTVVSFEYIFNFTSHMRNLHKYSTNFLELQINDHNKECVTNILQNLTMENIRKSSSASIKAGFEFLNALNDDIKKKHFSENVNYMVMVTITWDIHGNSGVSPNEPFSILCYIKCLPKHGSHVQIDIMCGERKTPNIKYSNVFDVRNKMLKLKSEDSHEVVLYNEKEEITEGLTCNFFCFFNDTLYTANDELVLKGTMREQIIHICEEEGVKLKKEAISIRDVGRFEFCFICSTTRNIIPVKKIILCSENKAEFEKDVHHPVLVKLQQKLREAVEKKKEKYEAYVSAALGV", "soluble on expression in E. coli": "not soluble"}
{"SEQUENCE CHAIN": "MDSKKILYISQEIFPYLPETDISVVSRKLPQTIQERGNEVRIFMPRYGIINERRNQLHEVIRLSGINMIINDNDHPLIIKVASIQSARMQVYFIDNDDFFKRKTMYDIKPKQENDNDERAIFFVRGALEAIKKLRWIPDVIHCHGWFTALAALYLKKMYADDPCLQKAKVVYSVYDDAGQGVIPETLFGKLGFDKITPDDLSVMEQSSDYLALNRLAIRYADGVIQGSETIAPELTDYISSLEGKAFLPYQGKEDYEEAFDNFYSDLLTANLEHHHHHH", "soluble on expression in E. coli": "not soluble"}
{"SEQUENCE CHAIN": "MSESLRNTITKIVVEKIRCKSLMFMPSHVCATFPFNTQNALVVDIGHSECIAVPIIEGVTMLNEFESARSICGRQLERRVREQMEKYGQIAELNGERRAITENDWQDIDACKLIETLSLSLICLDKERAENWTKWEASEEGEKPDIETLCKERLFPNNGKIFVVPPVVFETSTEIFFNENLNPTSFDLSLPKLLHKLVSKCPIDLRKKLFPNILLTGGVSTIPGLMKRLEQEIQVIDEKNNSKIAVIVKFYQFSEIKNTPLFVSWLGASLLGSLRETIERKSLTLEEWKNGKLAADWTDIIVKSR", "soluble on expression in E. coli": "not soluble"}
{"SEQUENCE CHAIN": "MAIPKLQSYALPTALDIPTNKVNWAFEPERAALLIHDMQDYFVSFWGRNCPMMDQVIANIAALRQYCKEHHIPVYYTAQPKEQSDEDRALLNDMWGPGLTRSPEQQKVVEALTPDEADTVLVKWRYSAFHRSPLEQMLKDTGRNQLIITGVYAHIGCMTTATDAFMRDIKPFMVADALADFSREEHLMALNYVAGRSGRVVMTESLLPTPVPASKAALRALILPLLDETDEPLDDENLIDYGLDSVRMMGLAARWRKVHGDIDFVMLAKNPTIDAWWALLSRGVE", "soluble on expression in E. coli": "not soluble"}
